The following molecules are listed with their measured IC50 values.
# targetDesc: ErbB2 with Exon 20 YVMA insertion (HER2-YVMA) (Homo sapiens (Human), UniProt P04626, INS775YVMA)
# Sequence (P04626 other isoform, or with tags, fused parts or gaps ins YVMA behind 775): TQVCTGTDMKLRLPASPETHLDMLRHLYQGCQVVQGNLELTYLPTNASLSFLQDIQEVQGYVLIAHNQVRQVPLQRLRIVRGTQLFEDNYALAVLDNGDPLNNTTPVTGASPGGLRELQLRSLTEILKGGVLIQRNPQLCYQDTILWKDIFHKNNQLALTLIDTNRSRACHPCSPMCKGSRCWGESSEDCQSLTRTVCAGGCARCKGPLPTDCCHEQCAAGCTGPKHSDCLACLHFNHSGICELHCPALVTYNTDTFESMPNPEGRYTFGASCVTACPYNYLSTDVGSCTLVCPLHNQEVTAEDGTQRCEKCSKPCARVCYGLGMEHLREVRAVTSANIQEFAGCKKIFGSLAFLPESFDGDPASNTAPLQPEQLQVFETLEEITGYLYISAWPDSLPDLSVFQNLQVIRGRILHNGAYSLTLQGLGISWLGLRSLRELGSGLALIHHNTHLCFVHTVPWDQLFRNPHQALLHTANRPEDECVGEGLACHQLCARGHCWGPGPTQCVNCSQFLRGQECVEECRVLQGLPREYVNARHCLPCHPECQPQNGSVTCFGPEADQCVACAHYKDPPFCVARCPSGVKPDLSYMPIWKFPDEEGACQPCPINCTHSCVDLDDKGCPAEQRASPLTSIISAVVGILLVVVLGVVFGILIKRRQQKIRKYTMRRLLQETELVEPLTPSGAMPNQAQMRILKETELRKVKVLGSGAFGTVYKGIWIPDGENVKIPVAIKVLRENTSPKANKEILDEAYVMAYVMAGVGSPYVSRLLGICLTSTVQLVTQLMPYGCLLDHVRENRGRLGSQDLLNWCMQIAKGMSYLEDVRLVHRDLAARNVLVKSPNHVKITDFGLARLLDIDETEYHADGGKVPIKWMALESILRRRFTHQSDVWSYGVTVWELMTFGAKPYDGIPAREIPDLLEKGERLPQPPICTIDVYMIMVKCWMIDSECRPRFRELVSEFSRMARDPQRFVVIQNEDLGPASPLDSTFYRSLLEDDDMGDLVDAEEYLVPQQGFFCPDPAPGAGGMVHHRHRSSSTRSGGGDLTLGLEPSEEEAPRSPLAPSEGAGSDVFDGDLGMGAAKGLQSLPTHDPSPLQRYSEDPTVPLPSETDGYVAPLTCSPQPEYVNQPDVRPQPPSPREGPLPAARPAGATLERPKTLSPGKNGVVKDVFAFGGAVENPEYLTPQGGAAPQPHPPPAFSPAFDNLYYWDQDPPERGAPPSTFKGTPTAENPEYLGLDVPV
# assayMethodText: Cellular phosphorylation assay, constitutive ErbB2 phosphorylation (Y1196) in engineered NIH 3T3 cells, Assay 4
# Format: cell-based
valueKind: IC50 (nM)

> print(dat)
                                   molecule  result
1  Cc1cc(Nc2ncnc3cnc(N4CCCS4(=O)=O)nc23)ccc1Oc1ccc2c(c1)ncn2C [Example 139]     6.3
2  Cc1cc(Nc2ncnc3cnc(N4CC5(C4)CC(C)(O)C5)nc23)ccc1Oc1ccc2c(c1)ncn2C [Example 156]    12.3
3  C[C@@H]1CN(c2ncc3ncnc(Nc4ccc(Oc5ccc6c(c5)ncn6C)c(Cl)c4)c3n2)CCO1 [Example 452]    20.2
4  Cc1cc(Nc2ncnc3cnc(N4CCN(C)S4(=O)=O)nc23)ccc1Oc1ccc2c(c1)ncn2C [Example 29]    20.6
5  CNc1ncc2ncnc(Nc3ccc(Oc4ccc5csnc5c4)c(C)c3)c2n1 [Example 241]     244
6  CN(c1ncc2ncnc(Nc3ccc(Oc4ccn5ncnc5c4)c(Cl)c3)c2n1)[C@H]1CCCOC1 [Example 360]    29.8
7  Cc1cc(Nc2ncnc3cnc(N(C)CC4(O)CCC4)nc23)ccc1Oc1ccc2c(c1)ncn2C [Example 164]       9
8  Cc1cc(Nc2ncnc3cnc(O[C@H]4C[C@@H](F)CN(C)C4)nc23)ccc1Oc1ccc2c(c1)ncn2C [Example 302]     141

###

# targetDesc: ErbB2 insYVMA (HER2-YVMA, SEQ ID NO: 2) (Homo sapiens, UniProt P04626, INS775YVMA/P1170A)
# Sequence (P04626 with tags, fused parts or gaps INS775YVMA/P1170A limits assumed): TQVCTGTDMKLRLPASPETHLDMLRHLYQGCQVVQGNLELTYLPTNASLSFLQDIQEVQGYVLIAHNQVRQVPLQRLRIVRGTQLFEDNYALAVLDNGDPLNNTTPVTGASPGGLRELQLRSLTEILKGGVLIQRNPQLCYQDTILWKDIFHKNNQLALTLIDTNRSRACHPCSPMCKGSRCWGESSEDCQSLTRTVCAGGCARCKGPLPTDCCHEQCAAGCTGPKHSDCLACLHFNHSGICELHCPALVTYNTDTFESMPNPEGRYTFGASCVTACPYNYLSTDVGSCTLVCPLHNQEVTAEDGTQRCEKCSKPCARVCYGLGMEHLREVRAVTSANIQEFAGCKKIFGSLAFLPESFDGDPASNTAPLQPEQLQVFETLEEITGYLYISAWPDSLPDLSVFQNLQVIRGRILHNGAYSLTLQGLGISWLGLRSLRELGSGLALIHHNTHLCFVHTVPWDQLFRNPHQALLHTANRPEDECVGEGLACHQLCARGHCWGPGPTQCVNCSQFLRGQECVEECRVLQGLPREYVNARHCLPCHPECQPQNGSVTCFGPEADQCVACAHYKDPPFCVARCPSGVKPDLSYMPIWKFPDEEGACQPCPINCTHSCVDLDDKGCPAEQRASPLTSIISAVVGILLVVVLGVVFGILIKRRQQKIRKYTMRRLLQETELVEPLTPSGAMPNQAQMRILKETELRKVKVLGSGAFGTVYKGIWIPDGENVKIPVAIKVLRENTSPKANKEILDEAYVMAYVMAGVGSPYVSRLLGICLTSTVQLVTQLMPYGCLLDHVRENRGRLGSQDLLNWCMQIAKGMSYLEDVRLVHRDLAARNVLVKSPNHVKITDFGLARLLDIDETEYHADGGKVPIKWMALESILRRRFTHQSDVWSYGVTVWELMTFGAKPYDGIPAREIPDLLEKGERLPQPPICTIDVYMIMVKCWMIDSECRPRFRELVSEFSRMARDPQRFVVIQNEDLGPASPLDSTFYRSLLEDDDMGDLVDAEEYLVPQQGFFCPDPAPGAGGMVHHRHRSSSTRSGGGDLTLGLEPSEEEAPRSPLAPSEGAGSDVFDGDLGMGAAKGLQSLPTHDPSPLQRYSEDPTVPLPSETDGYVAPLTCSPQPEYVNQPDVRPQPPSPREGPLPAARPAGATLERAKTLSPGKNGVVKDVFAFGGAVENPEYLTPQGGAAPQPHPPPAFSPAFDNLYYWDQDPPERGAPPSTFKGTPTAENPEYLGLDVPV
# assayMethodText: biochemical
# conditionLabel: ErbB2 insYVMA enzyme assay; read-out: Assay 1 IC50
The following molecules are shown together with reported log10(IC50) values.
valueKind: log10(IC50) (log10 of the value in µM)

> print(dat)
                                   molecule  result
1  Cc1cc(Nc2ncnc3cnc(N4CCN(CC(F)(F)F)CC4)nc23)ccc1Oc1ccc2c(c1)ncn2C [Example 85]   -0.69
2  Cc1cc(Nc2ncnc3cnc(-c4cnco4)nc23)ccc1Oc1ccc2c(c1)ncn2C [Example 48]   -1.25
3  Clc1cc(Nc2ncnc3cnc(N4CCOC5(CC5)C4)nc23)ccc1Oc1ccn2ncnc2c1 [Example 398]   -1.66
4  CN(c1ncc2ncnc(Nc3ccc(Oc4ccc5c(c4)ncn5C)c(Cl)c3)c2n1)C1COC1 [Example 123]   -1.58
5  Cc1cc(Nc2ncnc3cnc(N4CCN5CCOC[C@H]5C4)nc23)ccc1Oc1ccc2c(c1)ncn2C [Example 180]   -1.88
6  Cc1cc(Nc2ncnc3cnc(N(C)[C@@H]4CCOC4)nc23)ccc1Oc1ccc2c(c1)ncn2C [Example 128]   -1.68
7  CSc1ncc2ncnc(Nc3ccc(Oc4ccc5c(c4)ncn5C)c(C)c3F)c2n1 [Example 266]   -0.94
8  Cc1c(Oc2ccn3ncnc3c2)ccc(Nc2ncnc3cnc(N(C)CC(F)F)nc23)c1F [Example 317]   -1.74

###

Let's go through some recorded IC50 values for ErbB2 WT (Homo sapiens (Human)) together.

compound	targetDesc	IC50
Cc1cc(Nc2ncnc3cnc(N4CCOCC4)nc23)ccc1Oc1ccc2csnc2c1 [Example 243]	ErbB2 WT (Homo sapiens (Human))	0.264 µM
Cc1cc(Nc2ncnc3cnc(N4CC5CC(C4)C5O)nc23)ccc1Oc1ccc2c(c1)ncn2C (stereo not shown) [Example 464]	ErbB2 WT (Homo sapiens (Human))	0.0602 µM
Clc1cc(Nc2ncnc3cnc(N4C5CCC4COC5)nc23)ccc1Oc1ccn2ncnc2c1 [Example 322]	ErbB2 WT (Homo sapiens (Human))	0.0621 µM
Cc1cc(Nc2ncnc3cnc(N4CCC5(CCOC5)C4)nc23)ccc1Oc1ccc2c(c1)ncn2C (stereo not shown) [Example 15]	ErbB2 WT (Homo sapiens (Human))	0.0511 µM
Cc1cc(Nc2ncnc3cnc(NCC(F)F)nc23)ccc1Oc1ccc2c(c1)ncn2C [Example 251]	ErbB2 WT (Homo sapiens (Human))	0.0212 µM
Cc1cc(Nc2ncnc3cnc(N4C(C)CCS4(=O)=O)nc23)ccc1Oc1ccc2c(c1)ncn2C.O=C(O)C(F)(F)F (stereo not shown) [Example 79, 2,2,2-trifluoroacetate]	ErbB2 WT (Homo sapiens (Human))	0.0338 µM
Cc1cc(Nc2ncnc3cnc(N[C@H]4CN(C)C[C@H]4F)nc23)ccc1Oc1ccc2c(c1)ncn2C [Example 279]	ErbB2 WT (Homo sapiens (Human))	0.0506 µM
